The measurements presented in this section are drawn from patent EP4745134A1.

- tested system: PRMT5-MTA (Homo sapiens)
- Sequence (O14744 whole entry): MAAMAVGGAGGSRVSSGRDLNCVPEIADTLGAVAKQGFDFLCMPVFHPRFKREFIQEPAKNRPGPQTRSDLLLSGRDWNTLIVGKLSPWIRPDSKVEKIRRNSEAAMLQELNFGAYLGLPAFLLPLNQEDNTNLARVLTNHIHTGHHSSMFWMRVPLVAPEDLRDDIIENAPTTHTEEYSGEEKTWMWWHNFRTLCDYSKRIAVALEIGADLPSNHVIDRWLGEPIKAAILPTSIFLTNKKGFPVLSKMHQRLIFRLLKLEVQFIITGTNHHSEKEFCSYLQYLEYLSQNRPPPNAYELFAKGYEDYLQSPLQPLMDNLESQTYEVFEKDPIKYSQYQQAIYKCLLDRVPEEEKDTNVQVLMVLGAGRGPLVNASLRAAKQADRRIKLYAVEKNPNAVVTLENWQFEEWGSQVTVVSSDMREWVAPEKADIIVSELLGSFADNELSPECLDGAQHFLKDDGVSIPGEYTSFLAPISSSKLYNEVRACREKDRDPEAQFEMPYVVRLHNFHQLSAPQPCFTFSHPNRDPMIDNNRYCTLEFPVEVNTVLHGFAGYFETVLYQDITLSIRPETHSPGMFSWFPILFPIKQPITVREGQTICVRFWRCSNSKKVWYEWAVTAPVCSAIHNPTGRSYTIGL
- Sequence (Q9BQA1 whole entry partner): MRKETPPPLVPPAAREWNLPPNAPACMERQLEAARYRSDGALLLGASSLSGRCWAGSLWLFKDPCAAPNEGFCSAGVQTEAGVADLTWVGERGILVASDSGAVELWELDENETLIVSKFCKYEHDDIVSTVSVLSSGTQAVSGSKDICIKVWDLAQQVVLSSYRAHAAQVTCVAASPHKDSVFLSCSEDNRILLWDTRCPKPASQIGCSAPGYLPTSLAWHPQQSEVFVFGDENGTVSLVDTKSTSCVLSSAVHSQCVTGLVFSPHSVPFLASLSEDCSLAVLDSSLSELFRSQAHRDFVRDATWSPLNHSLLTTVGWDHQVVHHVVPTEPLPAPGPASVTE
- protocol description: Enzymatic inhibitory activity against PRMT5-MTA (AlphaScreen)
- Assay type: biochemical
- test settings: read-out: IC50
Could you please mark yes (1) for values of IC50 below 4 nM and no (0) for values at or above it?

Cc1ncc(-c2cnc(N3CC(C)CN3C(=O)c3cc4c(cc3C)nc(N)c3cnn(C)c34)c(F)c2)s1 (stereo not shown); no (0)
Cc1cc2cc(C(=O)N(Cc3ccc(-c4cccnc4)cn3)N(C)c3ncccc3F)ccc2nc1N; yes (1)
Cc1cc2cc(C(=O)N(Cc3ccc(C(F)(F)F)cn3)N(C)c3ccccc3)ccc2nc1N; yes (1)

In plain terms, does `Cn1ncc2c(N)nc3cc(Cl)c(C(=O)N4CC(F)(F)CN4c4cccc(F)n4)cc3c21` come in under 4 nM for IC50?
no (0)

In plain terms, does `Cn1ncc2c(N)nc3cc(C4CC4)c(C(=O)N4CCCN4c4ccc(C(F)(F)F)cn4)cc3c21` come in under 4 nM for IC50?
no (0)

In plain terms, does `COCc1cc2cc(C(=O)N(Cc3ccc(C(F)(F)F)cn3)N(C)c3ncccn3)ccc2nc1N` come in under 4 nM for IC50?
yes (1)

In plain terms, does `Cn1ncc2c(N)nc3cc(F)c(C(=O)N4CCCN4c4ccc(C(F)(F)F)cn4)cc3c21` come in under 4 nM for IC50?
no (0)
